Reference source for all entries: patent US10501479B2

Target: recombinant human ghrelin receptor (HEK293/GRLN) (Homo sapiens)
Construct: expressed in transfected cells
Sequence (Q92847 whole entry): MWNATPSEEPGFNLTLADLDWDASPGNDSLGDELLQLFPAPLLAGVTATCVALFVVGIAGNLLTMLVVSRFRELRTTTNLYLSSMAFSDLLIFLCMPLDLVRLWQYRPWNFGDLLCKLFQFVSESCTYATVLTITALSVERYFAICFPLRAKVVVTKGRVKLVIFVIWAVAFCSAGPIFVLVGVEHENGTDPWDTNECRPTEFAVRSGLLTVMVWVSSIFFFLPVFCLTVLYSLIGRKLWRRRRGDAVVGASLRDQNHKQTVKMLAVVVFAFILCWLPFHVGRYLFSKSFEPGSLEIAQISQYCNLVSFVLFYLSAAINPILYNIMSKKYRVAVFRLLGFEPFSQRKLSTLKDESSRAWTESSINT
Experiment: Ghrelin inverse agonist potency (EC50) with IP-1 (IP-One HTRF) assay
Format: cell-based
Conditions: IP-1 assay, HEK293/GRLN; read-out: Activity EC50 (ghrelin inverse agonist potency)
Strictly below 8 nM in EC50: Met. Otherwise: Not met.

[ask] Report whether reported EC50 is lower than 8 nM (strictly) for C[C@H](NC(=O)Nc1ccc(S(=O)(=O)Cc2ccc3c(c2)CN(C)C3)cc1)c1ccccc1
[reply] Not met

[ask] Report whether reported EC50 is lower than 8 nM (strictly) for CCc1ccc(Cl)c(C(C)NC(=O)Nc2ccc(S(=O)(=O)Cc3ccc4c(c3)CN(C)C4)cc2)c1 (centres unmarked)
[reply] Not met

[ask] Report whether reported EC50 is lower than 8 nM (strictly) for CC(NC(=O)Nc1ccc(S(=O)(=O)Cc2ccc3c(c2F)CCN(C)C3)cc1)c1cccc(Cl)c1Cl (centres unmarked)
[reply] Met

[ask] Report whether reported EC50 is lower than 8 nM (strictly) for CC(NC(=O)Nc1ccc(S(=O)(=O)Cc2ccc3c(c2)CN(C)C3)cc1)c1ccc2c(c1)OCO2 (centres unmarked)
[reply] Not met

[ask] Report whether reported EC50 is lower than 8 nM (strictly) for CC1c2ccccc2CCN1C(=O)Nc1ccc(S(=O)(=O)Cc2ccc3c(c2)CN(C)C3)cc1 (centres unmarked)
[reply] Not met

[ask] Report whether reported EC50 is lower than 8 nM (strictly) for C[C@@H](NC(=O)Nc1ccc(S(=O)(=O)Cc2csc3c2CN(C)C3)cc1)c1ccccc1
[reply] Not met

[ask] Report whether reported EC50 is lower than 8 nM (strictly) for CC(NC(=O)Nc1ccc(S(=O)(=O)Cc2ccc3c(c2)CN(C)C3)cc1)c1cc(F)cc(F)c1 (centres unmarked)
[reply] Not met

[ask] Report whether reported EC50 is lower than 8 nM (strictly) for COc1cccc(C(C)NC(=O)Nc2ccc(S(=O)(=O)Cc3ccc4c(c3)CN(C)C4)cc2)c1 (centres unmarked) [H1327]
[reply] Met

[ask] Report whether reported EC50 is lower than 8 nM (strictly) for CC(NC(=O)Nc1ccc(S(=O)(=O)Cc2ccc3c(c2)C[N+](C)([O-])C3)cc1)c1ccccc1 (centres unmarked)
[reply] Not met

[ask] Report whether reported EC50 is lower than 8 nM (strictly) for CC(NC(=O)Nc1ccc(S(=O)(=O)Cc2cc3c(s2)CNC3)cc1)c1ccccc1 (centres unmarked)
[reply] Not met

[ask] Report whether reported EC50 is lower than 8 nM (strictly) for COc1ccc(C(C)NC(=O)Nc2ccc3c(c2)C=C(c2ccc4c(c2)CN(Cc2ccccc2)C4)S3(=O)=O)cc1 (centres unmarked)
[reply] Not met

[ask] Report whether reported EC50 is lower than 8 nM (strictly) for CC(NC(=O)Nc1ccc(S(=O)(=O)Cc2ccc3c(c2)CNC3)cn1)c1ccccc1 (centres unmarked)
[reply] Not met

[ask] Report whether reported EC50 is lower than 8 nM (strictly) for CC(NC(=O)Nc1ccc(S(=O)(=O)CC2CCC(NCC3CC3)CC2)cc1)c1cccc(Cl)c1Cl (centres unmarked)
[reply] Not met

[ask] Report whether reported EC50 is lower than 8 nM (strictly) for CC(NC(=O)Nc1ccc(S(=O)(=O)Cc2cc(F)c3c(c2)CCN(C)C3)cc1)c1cccc(Cl)c1Cl (centres unmarked)
[reply] Met

[ask] Report whether reported EC50 is lower than 8 nM (strictly) for CC(NC(=O)Nc1ccc(S(=O)(=O)Cc2ccc3c(c2)C(=O)NC3)cc1)c1ccccc1 (centres unmarked)
[reply] Not met

[ask] Report whether reported EC50 is lower than 8 nM (strictly) for COc1cccc(C(C)NC(=O)Nc2ccc(S(=O)(=O)Cc3ccc4c(c3)CN(C)C4)cc2)c1 (centres unmarked) [H1326]
[reply] Met

[ask] Report whether reported EC50 is lower than 8 nM (strictly) for CC(NC(=O)Nc1ccc(S(=O)(=O)Cc2ccc(CO)cc2)cc1)c1cccc(Cl)c1Cl (centres unmarked)
[reply] Not met

[ask] Report whether reported EC50 is lower than 8 nM (strictly) for CC(NC(=O)Nc1ccc(S(=O)(=O)Cc2cc3c(cc2F)CN(C)CC3)cc1)c1cccc(Cl)c1Cl (centres unmarked)
[reply] Met

[ask] Report whether reported EC50 is lower than 8 nM (strictly) for CC(NC(=O)Nc1ccc(S(=O)(=O)Cc2ccc3c(c2)CN(C)C3)cc1O)c1ccccc1 (centres unmarked)
[reply] Met

[ask] Report whether reported EC50 is lower than 8 nM (strictly) for COc1cc(S(=O)(=O)Cc2ccc(CO)cc2)ccc1NC(=O)NC(C)c1ccccc1 (centres unmarked)
[reply] Not met

[ask] Report whether reported EC50 is lower than 8 nM (strictly) for CC(NC(=O)Nc1ccc(S(=O)(=O)Cc2ccc3c(c2)CC(C)N(C)C3)cc1)c1ccccc1 (centres unmarked)
[reply] Met

[ask] Report whether reported EC50 is lower than 8 nM (strictly) for CC(NC(=O)Nc1ccc(S(=O)(=O)Cc2ccc3c(c2)CN(C)C3)cc1)c1cccc(Cl)c1 (centres unmarked)
[reply] Not met

[ask] Report whether reported EC50 is lower than 8 nM (strictly) for CC(NC(=O)Nc1ccc(S(=O)(=O)Cc2ccc3c(c2)CNC3)cc1)c1cc(N2CCOCC2)ccc1Cl (centres unmarked)
[reply] Not met

[ask] Report whether reported EC50 is lower than 8 nM (strictly) for COc1cc(S(=O)(=O)Cc2ccc3c(c2)CNC3)ccc1NC(=O)NC(C)c1ccccc1.Cl (centres unmarked)
[reply] Met

[ask] Report whether reported EC50 is lower than 8 nM (strictly) for C[C@@H](NC(=O)Nc1ccc(S(=O)(=O)Cc2ccc(C3CCCN3)cc2)cc1)c1ccccc1 (some centres unmarked)
[reply] Not met

[ask] Report whether reported EC50 is lower than 8 nM (strictly) for CC(NC(=O)Nc1ccc(S(=O)(=O)Nc2ccc3c(c2)CCN(C)C3)cc1)c1cccc(F)c1F (centres unmarked)
[reply] Met

[ask] Report whether reported EC50 is lower than 8 nM (strictly) for CC1Cc2cc(CS(=O)(=O)c3ccc(NC(=O)N(C)Cc4ccccc4)cc3)ccc2CN1 (centres unmarked)
[reply] Not met

[ask] Report whether reported EC50 is lower than 8 nM (strictly) for C[C@H](NC(=O)Nc1ccc(S(=O)(=O)Nc2ccc3c(c2)CCN(C)C3)cc1)c1cccc(Cl)c1Cl
[reply] Met

[ask] Report whether reported EC50 is lower than 8 nM (strictly) for CC(NC(=O)Nc1ccc(S(=O)(=O)Cc2ccc3c(c2)CN(C2COC2)C3)cc1)c1ccccc1 (centres unmarked)
[reply] Not met

[ask] Report whether reported EC50 is lower than 8 nM (strictly) for COc1cc(S(=O)(=O)Cc2ccc3c(c2)CCNC3)ccc1NC(=O)N(C)C(C)c1cccc(Cl)c1Cl (centres unmarked)
[reply] Not met
